Provenance of the data: the supplement of paper PMC6555819

System: PPARa:RXRa (NR concentration 270 nM, RXRa partner concentration 90 nM)
experimental details: PBM binding z-score (relative to random genomic background probes); higher = stronger binding; sequences stand for … in GC…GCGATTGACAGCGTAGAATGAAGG
PBM binding z-score of 2 or higher: 1 (yes). Under 2: 0 (no).

{"construct sequence": "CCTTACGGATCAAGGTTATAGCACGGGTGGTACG", "experimental target": "PPARa:RXRa (NR concentration 270 nM, RXRa partner concentration 90 nM)", "discrete label": "0 (no)"}
{"construct sequence": "ATCGAAAGGTCGACGAGGCGAGTATACACCGTTT", "experimental target": "PPARa:RXRa (NR concentration 270 nM, RXRa partner concentration 90 nM)", "discrete label": "1 (yes)"}
{"construct sequence": "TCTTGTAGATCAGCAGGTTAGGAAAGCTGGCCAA", "experimental target": "PPARa:RXRa (NR concentration 270 nM, RXRa partner concentration 90 nM)", "discrete label": "0 (no)"}
{"construct sequence": "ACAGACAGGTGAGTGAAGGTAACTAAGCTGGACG", "experimental target": "PPARa:RXRa (NR concentration 270 nM, RXRa partner concentration 90 nM)", "discrete label": "0 (no)"}

Please examine the following record next.
Hi team, for ACTAGCAGGCCAAGTGTGGGTCACTCAAACAAAG , is the recorded PBM binding z-score at or above 2?
1 (yes)
